# Test system: MCF7
# assay procedure: Antiproliferative activity against human MCF7 cells at 100 uM after 72 hrs by WST1 assay
# Type: functional
The following compounds are shown together with reported Activity values.

{"columns": ["compound", "study system", "Activity, %"],
 "data": [
  ["C=CCN1COc2c(ccc3c2c2ccccc2n3CC)C1", "MCF7", 10],
  ["C=CCN1COc2ccc3c4ccccc4n(C)c3c2C1", "MCF7", 62],
  ["Cn1c2ccccc2c2cc3c(cc21)OCN(Cc1ccccc1)C3", "MCF7", 3],
  ["C=CCN1COc2c(ccc3c2c2ccccc2n3CC=C(C)C)C1", "MCF7", 2],
  ["Cn1c2ccccc2c2cc(CN(Cc3ccccn3)Cc3cc4c5ccccc5n(C)c4cc3O)c(O)cc21", "MCF7", 24.5],
  ["Cn1c2ccccc2c2cc3c(cc21)OCN(Cc1ccccn1)C3", "MCF7", 5],
  ["CC(C)=CCn1c2ccccc2c2c(O)c(CN(Cc3ccccn3)Cc3ccc4c(c3O)c3ccccc3n4CC=C(C)C)ccc21", "MCF7", 100],
  ["CCn1c2ccccc2c2c3c(ccc21)CN(c1ccccc1)CO3", "MCF7", 100],
  ["Cn1c2ccccc2c2ccc3c(c21)CN(Cc1ccccn1)CO3", "MCF7", 1.5],
  ["C=CCn1c2ccccc2c2c(O)c(CN(Cc3ccccn3)Cc3ccc4c(c3O)c3ccccc3n4CC=C)ccc21", "MCF7", 94.5]
]}
